Target: c-Src SH2;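 further: peptide library displayed on the E. coli surface as eCPX fusions, selected cells deep-sequenced, score is each peptide's frequency after selection divided by its frequency in the input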
Assay: SH2 binding enrichment of the phosphorylated peptide, bacterial display (enrichment ratio); higher = better substrate or ligand; peptides without Tyr show the background
Tag: met if measured SH2 binding enrichment is not below 0.5, not met if it is.

- residue.codes: "SGDDGYAKDAK [TENM4_Y1530]"
  class.label: "not met"
- residue.codes: "GASWRYRSGVS [NEU1_Y242_G243R]"
  class.label: "not met"
- residue.codes: "GEPLSYTRFSL [TFRC_Y20]"
  class.label: "met"
- residue.codes: "SAEEDYMADAK [KCNT1_Y876]"
  class.label: "met"
- residue.codes: "TFHNTYHSQMR [IL1RAPL1_Y615]"
  class.label: "met"
- residue.codes: "SSEYHYVGGFY [CTSC_Y347]"
  class.label: "met"
